# target_of_assay: T1, His9-hMSR1 (human MSR1 extracellular domain) (Homo sapiens, UniProt P21757)
# T1 construct: human MSR1 extracellular domain expressed with a N-terminal nonahistidine tag; His9 (nonahistidine) (N); purchased R&D Systems 2708-MS
# T1 sequence (P21757 77-451 limits assumed): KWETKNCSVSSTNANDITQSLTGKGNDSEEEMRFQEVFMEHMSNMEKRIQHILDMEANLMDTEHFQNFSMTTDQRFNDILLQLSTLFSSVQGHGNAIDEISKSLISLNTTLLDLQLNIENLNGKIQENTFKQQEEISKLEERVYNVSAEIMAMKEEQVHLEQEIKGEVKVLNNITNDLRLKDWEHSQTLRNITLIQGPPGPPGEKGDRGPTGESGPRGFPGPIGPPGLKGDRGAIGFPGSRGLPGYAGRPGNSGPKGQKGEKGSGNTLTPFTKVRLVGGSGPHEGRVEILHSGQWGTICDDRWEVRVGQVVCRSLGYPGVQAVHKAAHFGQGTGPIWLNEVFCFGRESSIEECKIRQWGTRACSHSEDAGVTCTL
# experimental_details: Biacore surface plasmon resonance binding kinetics of anti-MSR1 mAbs, antibody-capture format
# settings: 25° C.; analyte His9-hMSR1; antibody-capture format; NB = no binding observed
Assign ka to each entry below.
API: value field is a number in M⁻¹ s⁻¹; no unit string.

Recorded ka for H1H27747P-N297Q (antibody, V domains shown) VH: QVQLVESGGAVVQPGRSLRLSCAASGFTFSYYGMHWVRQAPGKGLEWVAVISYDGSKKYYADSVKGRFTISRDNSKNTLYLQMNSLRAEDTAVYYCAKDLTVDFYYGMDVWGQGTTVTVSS VL: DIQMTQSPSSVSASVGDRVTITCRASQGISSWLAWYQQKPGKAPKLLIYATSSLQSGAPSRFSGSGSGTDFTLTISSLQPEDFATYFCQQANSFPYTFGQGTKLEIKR , please?
243000

Recorded ka for H1H27734P-N297Q: one of "Twelve anti-MSR1 antibodies"; "made with an N297Q single point mutation in human Fcγ portion" (antibody, V domains shown) VH: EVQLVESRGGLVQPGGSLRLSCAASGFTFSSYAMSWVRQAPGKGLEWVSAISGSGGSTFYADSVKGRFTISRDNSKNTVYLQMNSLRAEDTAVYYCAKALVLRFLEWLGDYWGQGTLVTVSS VL: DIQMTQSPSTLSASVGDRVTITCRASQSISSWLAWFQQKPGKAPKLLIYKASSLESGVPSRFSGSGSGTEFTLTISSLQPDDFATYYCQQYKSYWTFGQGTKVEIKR , please?
420000
